# assay-explanation: clinical
# settings: human, in vivo, 68 mg, Half Life

>  <cpd-smiles>
CC(C)(C(=O)NCC(F)(F)C(F)(F)F)C(=O)N[C@@H]1C(=O)Nc2ccccc2-c2ccccc21

>  <half-life>
15.9 h

$$$$
